ASSAY_SYSTEM: GABARAP, O95166
Sequence (O95166 whole entry, the tested form may be a part): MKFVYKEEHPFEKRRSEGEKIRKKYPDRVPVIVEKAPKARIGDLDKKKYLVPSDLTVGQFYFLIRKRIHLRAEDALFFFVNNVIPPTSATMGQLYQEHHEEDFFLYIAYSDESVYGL
TEST_DESCRIPTION: median log2 fold change of GCK-ALFA target abundance (FLAG IP / Myc IP barcode read proportion) (log2 ratio); each designed protein is fused to an ALFA-tag nanobody in HEK293 cells to bring the named protein to FLAG-tagged glucokinase (GCK); Myc marks an untargeted standard; higher = target protein stabilised (more abundant)
TEST_CONTEXT: target protein: 3xFLAG-MCP-GCK-ALFA reporter; HEK293 landing pad (RPLP)
Whole data set: some 4,500 sequences, median “median log2 fold change of GCK-ALFA target abundance (FLAG IP / Myc IP barcode read proportion)” near 0.078, cut for the lowest 2% near -0.6. The sample as a whole holds a higher share of the lowest values than the screen did.
Assign yes (1) whenever median log2 fold change does not fall below 0.2; assign no (0) whenever it does.

[Q] Could you verify whether the entry GBRAP_184_5031 (protein) SVIERTIKADNLEELEAKLEKLKEEVKGSKADLIVTLDIKNPTEEMIKTALKRLGEMKKNGDVSSVTVGFARLLSEELIDVALKTADEEGVKVVLPISEE shows median log2 fold change of no less than 0.2?
[A] no (0)

[Q] Exam item: decide whether the reported median log2 fold change for GBRAP_52_6046 (protein) MEEEARKLAKELLELVLEGKEEEARKLAREIAETKNEEEILKIAEELAKLVLEGDKETAEAGIKAAEIMAEELEKAGRDEGLADLILATVYGAAYKRLQK is at least 0.2.
[A] no (0)

[Q] Form field: median log2 fold change at least 0.2? Entry: GBRAP_160_4175 (protein) SEKLEEAEKKIKEIFEEAYKMMEGESAEERAAIVAVAFGEIILYLEEKGLLTDETEAKIDEIEDEAVEYILENPDLTEEELRELLEESAEKIIKALKENS
[A] no (0)

[Q] Please indicate if the recorded median log2 fold change for GBRAP_128_3379 (protein) MDEEKLERVRELVRRAIESDVEETRELTREVVRLMGTLSPEEREAAAEIVIEALPEFSREKLDAIADTIRELRPELDPLGQELAAEVEVAALNRAEELEE meets or exceeds 0.2.
[A] yes (1)

[Q] Test whether the binder GBRAP_128_3486 (protein) STEEVVAKTKELMEKIKNSSLEEVEEIARELVELLGQADPESREAATEVILEKLKELSAEKLEILADVLRERQPELDPFGAEQAAEIQVEALNEAEEKEE records median log2 fold change of 0.2 or higher.
[A] yes (1)

[Q] Say whether GBRAP_160_4617 (protein) SSKIEELKKFVKEEFEEAKEMIEGETPEQRAAIVDVTIGEIILEAEELEVVSDESLEKIDEIGDELVETILENPDLTEEEVKELIDEAEKKIIEIIEEDE shows median log2 fold change of 0.2 or more.
[A] no (0)

[Q] Quick check, median log2 fold change >= 0.2? GBRAP_150_3934 (protein) DLEELLLLAESVADLLDLALNEGIDRLKALKRAQELLKDLIKEADEELKEIAKKAQELIKKAIKLEEEGGEEKEIKKLLKKAQELAKELAKELEKKIEEE
[A] no (0)

[Q] Reported median log2 fold change at or above 0.2? GBRAP_9_7175 (protein) LKEAAKKAIEGLKEAKEFALEVVPEEKKEEINAAFDELIETVKKMQADDSVTKEEFRETLEKGFDKIIELAKKNLDPEIAAIVETELLTIKAEVDELLDE
[A] yes (1)

[Q] Has GBRAP_79_6747 (protein) GVEEARRALVEALRVVLPDLTEEEAAEAVASDEALRAALLRAGISEEMAAELLEAIDAIPELAAERFRRTVERMEGLEPEDRRDVLEATIAAVIYEAEQR a recorded median log2 fold change greater than or equal to 0.2?
[A] yes (1)

[Q] Reported median log2 fold change at or above 0.2? GBRAP_128_3452 (protein) STEEKVKKAEELMNKIIESSDEEVPALAAELVDLIGESDDESAKAIAEVIIKKIPELSEEKLEILADVFVARRPELTPEKQEVLNEIAVAIGEEILEKEE
[A] yes (1)

[Q] # check: median log2 fold change of GBRAP_35_5553 (protein) DFDKEVIEMVRATAEDLLLAVDDLPVDTLITMATQIAELTLKVAKDEKENKEELKELLEATLELLDAVIEKAEKEGAPEEDIEKLRKLKKELEEALKEAE is greater than or equal to 0.2
[A] no (0)

[Q] Reported median log2 fold change at or above 0.2? GBRAP_160_4776 (protein) SEKEEKLKKKIKEAKEEILESIDTLSPEETLTVAIGETGDIIMEAEELEFDNEELLDSIDEIMDELIEELEKNKNASPEEKKKIVEEKFEKLLKELEKLT
[A] no (0)

[Q] Is it the case that GBRAP_78_6619 (protein) ETKEKIIELLDRARDRMREIARREPEVRDLANEAAVLVGTAILMVDTGEESKEEIIEELEEALKVAKELLERLEGRDEESVKLAKEAIEDLKKAIELVKK has median log2 fold change reaching or exceeding 0.2?
[A] yes (1)

[Q] Given the entry GBRAP_14_3852 (protein) IEELIKAVEETAKETKEMAKEVLPEHAEEVNKKIEELAKKIIKKIKEENLNKEEVAELMDEFAEELAKFIKEKGFANETEIAAIRATILNEAALKLDEIE , answer whether its median log2 fold change meets or surpasses 0.2.
[A] no (0)

[Q] Say whether GBRAP_52_5929 (protein) MREEARELAERVLEAAEAGDEERLRELLREIVEELDDEEIELVIDELAELTIERGPEYYDLFADIMDLLEDEVEKAGRDVERVQYAIARAAGRMYDALQA shows median log2 fold change of 0.2 or more.
[A] no (0)

[Q] Threshold query (median log2 fold change >= 0.2) on GBRAP_184_5158 (protein) KVLERTIEADNLEELKKKLKEIKEEAAKTKADLIVVLNLKELTKEMLETALSTLGEIKKEGLAPSITLLIENEMNDEQIDFALKLADEAGVTLVVAIPDE
[A] no (0)

[Q] Record GBRAP_35_5522 (protein) DSDTLTVEMLVATIEDLTLAVPDMDVETAVQIATQLIKAAEELAKDIKNNVEGLKKLRDALAKLRDALEKHYGDDPLAQQVIAQIDKLIAEIDKMIKEAK ; criterion: median log2 fold change no lower than 0.2. Met?
[A] no (0)
